- assay-name: NCI Yeast Anticancer Drug Screen. Data for the cln2 rad14 strain (AID 165)
- test-settings: S. cerevisiae cln2 rad14 strain, at 50.0 µM (retest, dose inferred, filed as 5.0), active compounds read high
The panel holds about 79,000 compounds, 15% with a hit somewhere; the sample as a whole holds those more often.
Class condition met: growth inhibition at least 70%. Class condition not met: growth inhibition below 70%.

Qu. // inclusive: growth inhibition at least 70%? input: Cc1ccc(C(C)C)c(C(=C2C=CC(=[N+](C)C)C=C2)c2c(C(C)C)ccc(C)c2O)c1O
Ans. condition met

Qu. Continue with Nc1ccc2cc(Br)c3ccccc3c2c1
Ans. condition not met

Qu. Continue with O=C(Cc1ccccc1)c1ccc(O)cc1
Ans. condition met

Qu. Continue with CCC(C)C(=O)OCC(=O)c1ccc(-c2ccccc2)cc1 (configuration not stated)
Ans. condition not met

Qu. Continue with O=[N+]([O-])c1ccc2nnnn2c1
Ans. condition not met

Qu. Continue with Clc1ccc(C(c2ccc(Cl)cc2)N2CCNCC2)cc1
Ans. condition met

Qu. Continue with O=Cn1c2ccccc2c2ccccc21
Ans. condition met

Qu. Continue with Cc1ccc(S(=O)(=O)N/N=C/c2c(O)ccc3ccccc23)cc1
Ans. condition met

Qu. Continue with OC1C#CCSCC#C/C=C\1 (configuration not stated)
Ans. condition met

Qu. Continue with [Cl][Pt+2][Cl].[NH-]CC1(C[NH-])CCCCC1
Ans. condition met

Qu. Continue with CN(Cc1cccc2ccccc12)Cc1cccc2ccccc12
Ans. condition not met

Qu. Continue with O=C1C=CC(=Nc2ccc3c(c2)Cc2cc(Cl)ccc2-3)O1
Ans. condition met
